- TARGET OR SYSTEM: T1, Human SIRPαV1 (NP_542970.1), Extracellular Domain + His-Tag (human, UniProt P78324 31-373)
- T1 construct: also called huSIRPαV1; hSIRPαV1; not shown: His-Tag
- T1 sequence (P78324 other isoform, or with tags, fused parts or gaps): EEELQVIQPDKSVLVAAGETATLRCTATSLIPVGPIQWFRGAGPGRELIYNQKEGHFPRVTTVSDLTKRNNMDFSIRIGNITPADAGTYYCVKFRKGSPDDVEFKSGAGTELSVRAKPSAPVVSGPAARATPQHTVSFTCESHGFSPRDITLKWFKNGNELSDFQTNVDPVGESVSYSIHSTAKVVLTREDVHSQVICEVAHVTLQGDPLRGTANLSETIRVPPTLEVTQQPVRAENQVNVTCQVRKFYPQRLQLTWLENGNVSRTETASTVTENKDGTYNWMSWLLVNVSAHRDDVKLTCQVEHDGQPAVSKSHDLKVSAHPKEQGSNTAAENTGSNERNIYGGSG
- EXPERIMENTAL PROTOCOL: SPR, antibody captured on Protein A/G, ECD-His analyte, 1:1 fit
PROPERTY LABEL: Kd (nM)
Give your result in nM as a bare value.

{"columns": ["BINDER", "UNIT DESCRIPTOR", "Kd"],
 "data": [
  ["Antibody E13 (antibody, human IgG1, kappa, L234A L235A, V domains shown) VH: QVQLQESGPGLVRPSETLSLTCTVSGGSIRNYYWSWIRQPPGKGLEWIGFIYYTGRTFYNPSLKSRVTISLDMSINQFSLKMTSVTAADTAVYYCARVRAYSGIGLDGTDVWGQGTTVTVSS VL: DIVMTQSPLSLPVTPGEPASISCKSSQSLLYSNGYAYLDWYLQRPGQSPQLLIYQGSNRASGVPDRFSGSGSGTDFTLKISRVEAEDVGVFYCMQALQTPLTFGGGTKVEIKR", "nM", 1.7]
]}

Q. Return the recorded Kd value; entry: Antibody A7 (antibody, human IgG1, kappa, L234A L235A, V domains shown) VH: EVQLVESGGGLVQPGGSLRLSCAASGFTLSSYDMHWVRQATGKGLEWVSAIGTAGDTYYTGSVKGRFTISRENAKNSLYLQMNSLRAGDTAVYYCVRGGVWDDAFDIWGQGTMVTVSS VL: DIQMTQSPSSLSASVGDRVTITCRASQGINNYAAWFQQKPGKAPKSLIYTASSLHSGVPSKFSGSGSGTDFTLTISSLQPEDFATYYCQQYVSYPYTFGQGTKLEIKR
A. 9.38

Q. Return the recorded Kd value; entry: Antibody E5 (antibody, human IgG1, kappa, L234A L235A, V domains shown) VH: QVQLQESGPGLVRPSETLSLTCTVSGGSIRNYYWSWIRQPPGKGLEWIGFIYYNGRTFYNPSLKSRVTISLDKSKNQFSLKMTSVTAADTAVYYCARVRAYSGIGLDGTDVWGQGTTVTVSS VL: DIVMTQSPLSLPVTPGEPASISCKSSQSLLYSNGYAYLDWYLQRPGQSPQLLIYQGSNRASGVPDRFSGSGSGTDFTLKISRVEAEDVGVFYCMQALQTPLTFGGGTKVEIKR
A. 1.02
